tested on: Moraxella catarrhalis; test: Antibacterial activity against Moraxella catarrhalis clinical isolate 125 after 18 hrs by NCCLS agar dilution method; type: functional; conditions: clinical isolate 125, 18 h
measure: MIC
Answers without a unit are incomplete; give the number and then its unit.

Observe how each entry below is paired with its result.
The measured MIC associated with `O=C(NCC(=O)N1CCN(c2ccc(N3C[C@H](Cn4ccnn4)OC3=O)cc2F)CC1)c1cc([N+](=O)[O-])cc([N+](=O)[O-])c1` reads 0.25 µg/mL

Record `Cc1cn(C[C@H]2CN(c3ccc(N4CCN(C(=O)CNC(=O)c5cc([N+](=O)[O-])cc([N+](=O)[O-])c5)CC4)c(F)c3)C(=O)O2)nn1` . Reported MIC: 0.5 µg/mL

// below: MIC requested for another molecule
Kindly note the recorded MIC for CC(=O)NC[C@H]1CN(c2ccc(N3CCOCC3)c(F)c2)C(=O)O1 [LINEZOLID] , which is 8 µg/mL

* * *

system: Streptococcus pneumoniae; assay: Antibacterial activity against penicillin-resistant Streptococcus pneumoniae after 18 hrs by NCCLS agar dilution method; assay type: functional
measure: MIC (µg/mL)
Lab book: enter the figure in µg/mL, no units written.

Answered cases to consult:
MIC for Streptococcus pneumoniae with input `Cc1cn(C[C@H]2CN(c3ccc(N4CCN(C(=O)CNS(=O)(=O)c5cccs5)CC4)c(F)c3)C(=O)O2)nn1` equals 2

Entry `O=C(CNS(=O)(=O)c1cccs1)N1CCN(c2ccc(N3C[C@H](Cn4ccnn4)OC3=O)cc2F)CC1` ; assay system Streptococcus pneumoniae; MIC recorded at 1

Form field MIC for item `Cc1cn(C[C@H]2CN(c3ccc(N4CCN(C(=O)CNC(=O)OC(C)(C)C)CC4)c(F)c3)C(=O)O2)nn1` on Streptococcus pneumoniae: 4

Value sought: MIC, system Streptococcus pneumoniae, item `CC(=O)NCC(=O)N1CCN(c2ccc(N3C[C@H](Cn4cc(C)nn4)OC3=O)cc2F)CC1` . Result: 1

The value of MIC recorded for `Cc1cn(C[C@H]2CN(c3ccc(N4CCN(C(=O)CNC(=O)c5cccs5)CC4)c(F)c3)C(=O)O2)nn1` when tested on Streptococcus pneumoniae reads 0.5

We now examine a further molecule.
Hey, Streptococcus pneumoniae data for `CCOC(=O)CC(=O)NCC(=O)N1CCN(c2ccc(N3C[C@H](Cn4cc(C)nn4)OC3=O)cc2F)CC1` : MIC came out at 4

* * *

Catalogue of MIC values
tested on: Moraxella catarrhalis; experiment: Antibacterial activity against Moraxella catarrhalis clinical isolate 138 after 18 hrs by NCCLS agar dilution method; type: functional; details: clinical isolate 138, 18 h
Lab book: enter the figure in µg/mL, no units written.

MIC of `Cc1cn(C[C@H]2CN(c3ccc(N4CCN(C(=O)CNC(=O)c5ccc([N+](=O)[O-])o5)CC4)c(F)c3)C(=O)O2)nn1` , assay on Moraxella catarrhalis, is 1

Summary: `O=C(NCC(=O)N1CCN(c2ccc(N3C[C@H](Cn4ccnn4)OC3=O)cc2F)CC1)c1cc([N+](=O)[O-])cc([N+](=O)[O-])c1` , Moraxella catarrhalis, MIC = 0.25

Please find the next compound below.
`CC(=O)NC[C@H]1CN(c2ccc(N3CCOCC3)c(F)c2)C(=O)O1` on Moraxella catarrhalis gives MIC = 8

* * *

Recorded MIC by entry
test system: Staphylococcus aureus; assay: Antibacterial activity against methicillin-resistant Staphylococcus aureus after 18 hrs by NCCLS agar dilution method; assay type: functional
// units = µg/mL; emit number, no label

Completed entries (count: 2):
For this compound ( `O=C(NCC(=O)N1CCN(c2ccc(N3C[C@H](Cn4ccnn4)OC3=O)cc2F)CC1)c1ccc([N+](=O)[O-])o1` ), measured MIC is 0.06

Reported MIC ( `Cc1cn(C[C@H]2CN(c3ccc(N4CCN(C(=O)CNC(=O)c5cccnc5)CC4)c(F)c3)C(=O)O2)nn1` ) = 1

More entries:
In plain terms, `Cc1cn(C[C@H]2CN(c3ccc(N4CCN(C(=O)CNC(=O)OC(C)(C)C)CC4)c(F)c3)C(=O)O2)nn1` has a documented MIC of 8

* * *

tested on: Staphylococcus; assay: Antibacterial activity against methicillin-susceptible coagulase-negative Staphylococcus after 18 hrs by NCCLS agar dilution method; type: functional
measure: MIC
Answer format: value, then unit.

Reference set, count: 7
For record `Cc1cn(C[C@H]2CN(c3ccc(N4CCN(C(=O)CNC(=O)C(F)(F)F)CC4)c(F)c3)C(=O)O2)nn1` the listed MIC is 4 µg/mL

The compound `Cc1cn(C[C@H]2CN(c3ccc(N4CCN(C(=O)CNC(=O)c5ccccc5)CC4)c(F)c3)C(=O)O2)nn1` showed MIC equal to 0.5 µg/mL

// sample `Cc1cn(C[C@H]2CN(c3ccc(N4CCN(C(=O)CNC(=O)c5cc([N+](=O)[O-])cc([N+](=O)[O-])c5)CC4)c(F)c3)C(=O)O2)nn1` , its MIC was 1 µg/mL

Per the records, this compound ( `Cc1cn(C[C@H]2CN(c3ccc(N4CCN(C(=O)CNC(=O)c5ccc([N+](=O)[O-])o5)CC4)c(F)c3)C(=O)O2)nn1` ) has MIC equal to 0.06 µg/mL

For reference, reported MIC for `CCOC(=O)CC(=O)NCC(=O)N1CCN(c2ccc(N3C[C@H](Cn4cc(C)nn4)OC3=O)cc2F)CC1` stands at 4 µg/mL

Reported MIC of CC(=O)NC[C@H]1CN(c2ccc(N3CCOCC3)c(F)c2)C(=O)O1 [LINEZOLID] : 0.5 µg/mL

The compound listed as `Cc1cn(C[C@H]2CN(c3ccc(N4CCN(C(=O)CNC(=O)c5ccco5)CC4)c(F)c3)C(=O)O2)nn1` has a reported MIC of 2 µg/mL

Next compound, please.
Reported MIC ( `Cc1cn(C[C@H]2CN(c3ccc(N4CCN(C(=O)CNC(=O)c5cccnc5)CC4)c(F)c3)C(=O)O2)nn1` ) = 1 µg/mL

* * *

test system: Streptococcus pneumoniae; experiment: Antibacterial activity against penicillin-resistant Streptococcus pneumoniae after 18 hrs by NCCLS agar dilution method; assay type: functional
// reported MIC per item
Give the value in µg/mL but do not write µg/mL after it.

Some entries whose results are on file:
// recorded MIC for `O=C(NCC(=O)N1CCN(c2ccc(N3C[C@H](Cn4ccnn4)OC3=O)cc2F)CC1)c1cccs1` : 0.5

Per the record, `Cc1cn(C[C@H]2CN(c3ccc(N4CCN(C(=O)CNC(=O)c5cccnc5)CC4)c(F)c3)C(=O)O2)nn1` has MIC of 0.25

Reported MIC ( Cc1cn(C[C@H]2CN(c3ccc(N4CCN(C(=O)CNC(=O)C5CCCO5)CC4)c(F)c3)C(=O)O2)nn1 (stereo partly drawn) ) = 0.5

The reported MIC of the compound `O=C(NCC(=O)N1CCN(c2ccc(N3C[C@H](Cn4ccnn4)OC3=O)cc2F)CC1)c1cc([N+](=O)[O-])cc([N+](=O)[O-])c1` was 0.25

GET /value?item= O=C(NCC(=O)N1CCN(c2ccc(N3C[C@H](Cn4ccnn4)OC3=O)cc2F)CC1)C1CCCO1 (stereo partly drawn) &field=MIC returns 1

Next:
What the record says about `O=C(NCC(=O)N1CCN(c2ccc(N3C[C@H](Cn4ccnn4)OC3=O)cc2F)CC1)c1cccnc1` : MIC is 0.25

GET /value?item= `Cc1cn(C[C@H]2CN(c3ccc(N4CCN(C(=O)CNC(=O)C(Cl)Cl)CC4)c(F)c3)C(=O)O2)nn1` &field=MIC returns 2

# MIC (compound: `CCOC(=O)CC(=O)NCC(=O)N1CCN(c2ccc(N3C[C@H](Cn4ccnn4)OC3=O)cc2F)CC1` ) is 2

* * *

system: Moraxella catarrhalis; assay: Antibacterial activity against Moraxella catarrhalis clinical isolate 1 after 18 hrs by NCCLS agar dilution method; type: functional; details: clinical isolate 1, 18 h
measure: MIC (µg/mL)
Give the number; µg/mL is assumed, so skip it.

Moraxella catarrhalis assay, compound `O=C(NCC(=O)N1CCN(c2ccc(N3C[C@H](Cn4ccnn4)OC3=O)cc2F)CC1)c1cccs1` , recorded MIC = 8

Hey, Moraxella catarrhalis data for `O=C(NCC(=O)N1CCN(c2ccc(N3C[C@H](Cn4ccnn4)OC3=O)cc2F)CC1)c1cccnc1` : MIC came out at 8

Form: item `Cc1cn(C[C@H]2CN(c3ccc(N4CCN(C(=O)CNC(=O)c5ccccc5)CC4)c(F)c3)C(=O)O2)nn1` ; test system Moraxella catarrhalis; MIC: 4

Tested on Moraxella catarrhalis, the item `CC(=O)NC[C@H]1CN(c2ccc(N3CCOCC3)c(F)c2)C(=O)O1` showed MIC equal to 8

GET /values?item= `O=C(NCC(=O)N1CCN(c2ccc(N3C[C@H](Cn4ccnn4)OC3=O)cc2F)CC1)c1cc([N+](=O)[O-])cc([N+](=O)[O-])c1` &system= Moraxella catarrhalis returns MIC: 0.25

Turning now to a further compound:
Measured on Moraxella catarrhalis, `Cc1cn(C[C@H]2CN(c3ccc(N4CCN(C(=O)CNC(=O)c5cc([N+](=O)[O-])cc([N+](=O)[O-])c5)CC4)c(F)c3)C(=O)O2)nn1` has a documented MIC of 1
